This collection of values is drawn from the supplement of paper PMC11061612.

- Test system: PANC-08-13 (Pancreatic Carcinoma)
- Assay Method Text: combination Emax (second highest fraction inhibited in the dose matrix, 72 h); higher = more inhibition; extreme values may be limits of the assay
Measurement Type: combination Emax
API doc: respond with a numeric literal and nothing else, no unit.

• NC1(C(=O)N[C@@H](CCO)c2ccc(Cl)cc2)CCN(c2ncnc3[nH]ccc23)CC1 [Capivasertib] + CC(C)n1c(=O)n(C)c2cnc3cc(F)c(-c4ccc(OCCCN5CCCCC5)nc4)cc3c21 [AZD1390] (first compound max 10 µM, 7x7, partner max 0.3 µM) = 0.242
• COc1nnc2ccc(N3CCC(c4ccc(OCCN5CCN(C)C(=O)[C@H]5C)cc4)CC3)nn12 [AZD5153] + C[C@@H]1COCCN1C2=NC(=NC(=C2)C3(CC3)[S@](=N)(=O)C)C4=C5C=CNC5=NC=C4 [AZD6738] (first compound max 1 µM, 7x7, partner max 10 µM) = 0.831

State, for PANC-08-13 (Pancreatic Carcinoma), measured combination Emax of the molecule listed here: CC1(C)CCC(CN2CCN(c3ccc(C(=O)NS(=O)(=O)c4ccc(NCC5CCOCC5)c([N+](=O)[O-])c4)c(Oc4cnc5[nH]ccc5c4)c3)CC2)=C(c2ccc(Cl)cc2)C1 [Venetoclax] + COc1cc(Nc2ncc3c(n2)-c2ccc(Cl)cc2C(c2c(F)cccc2OC)=NC3)ccc1C(=O)O [Alisertib] (first compound max 1 µM, 7x7, partner max 10 µM)
0.302

====

Catalogue of Bliss excess values
- System: DND-41 (T-Lymphoblastic Leukemia)
- Assay Method Text: Bliss excess, mean over the matrix (fraction); higher = more synergy

* CN(C)CCCOc1ccc(-c2ccc3ncc4c(c3c2)n(C2CCOCC2)c(=O)n4C)cn1 [AZD0156] + C[C@@H]1COCCN1C2=NC(=NC(=C2)C3(CC3)[S@](=N)(=O)C)C4=C5C=CNC5=NC=C4 [AZD6738] (first compound max 1 µM, 7x7, partner max 10 µM) | -0.0034
* CS(=O)(=O)CCNCc1ccc(-c2ccc3ncnc(Nc4ccc(OCc5cccc(F)c5)c(Cl)c4)c3c2)o1 [Lapatinib] + NC1(c2ccc(-c3nc4ccn5c(=O)[nH]nc5c4cc3-c3ccccc3)cc2)CCC1 [MK-2206] (first compound max 10 µM, 7x7, partner max 10 µM) | 0.0377
* Cc1nc(Nc2ncc(C(=O)Nc3c(C)cccc3Cl)s2)cc(N2CCN(CCO)CC2)n1 [Dasatinib] + CC(=O)Nc1cccc(-n2c(=O)n(C3CC3)c(=O)c3c(Nc4ccc(I)cc4F)n(C)c(=O)c(C)c32)c1 [Trametinib] (first compound max 2 µM, 7x7, partner max 1 µM) | -0.0333

# input for lookup
State, for DND-41 (T-Lymphoblastic Leukemia), measured Bliss excess of the compound listed here: Cn1cnc2c(F)c(Nc3ccc(Br)cc3Cl)c(C(=O)NOCCO)cc21 [Selumetinib] + C=CCn1c(=O)c2cnc(Nc3ccc(N4CCN(C)CC4)cc3)nc2n1-c1cccc(C(C)(C)O)n1 [AZD1775] (first compound max 10 µM, partner max 1 µM)
-0.0248

====

Catalogue of Bliss excess values
- System: K-562 (Chronic Myelogenous Leukemia)
- Assay Method Text: Bliss excess, mean over the matrix (fraction); higher = more synergy

* Cc1c2c(nn1C)CSCc1cc(n(C)n1)CSc1cc(c3ccccc3c1)OCCCc1c(C(=O)O)n(C)c3c-2c(Cl)ccc13 [AZD5991] + CC(=O)O[C@H]1C(=O)[C@@]2(C)[C@H]([C@H](OC(=O)c3ccccc3)[C@]3(O)C[C@H](OC(=O)[C@H](O)[C@@H](NC(=O)c4ccccc4)c4ccccc4)C(C)=C1C3(C)C)[C@]1(OC(C)=O)CO[C@@H]1C[C@@H]2O [Paclitaxel] (first compound max 1 µM, 7x7, partner max 3 µM) | -0.0245
* COc1nnc2ccc(N3CCC(c4ccc(OCCN5CCN(C)C(=O)[C@H]5C)cc4)CC3)nn12 [AZD5153] + C=CCn1c(=O)c2cnc(Nc3ccc(N4CCN(C)CC4)cc3)nc2n1-c1cccc(C(C)(C)O)n1 [AZD1775] (first compound max 1 µM, partner max 1 µM) | -0.0718

# input for lookup
Determine from records and report Bliss excess for C=CCn1c(=O)c2cnc(Nc3ccc(N4CCN(C)CC4)cc3)nc2n1-c1cccc(C(C)(C)O)n1 [AZD1775] + CCc1c2c(nc3ccc(O)cc13)-c1cc3c(c(=O)n1C2)COC(=O)[C@]3(O)CC [SN-38] (first compound max 1 µM, partner max 0.3 µM)
0.0873
